# targetDesc: UniProt P18031
# Sequence (P18031 whole entry): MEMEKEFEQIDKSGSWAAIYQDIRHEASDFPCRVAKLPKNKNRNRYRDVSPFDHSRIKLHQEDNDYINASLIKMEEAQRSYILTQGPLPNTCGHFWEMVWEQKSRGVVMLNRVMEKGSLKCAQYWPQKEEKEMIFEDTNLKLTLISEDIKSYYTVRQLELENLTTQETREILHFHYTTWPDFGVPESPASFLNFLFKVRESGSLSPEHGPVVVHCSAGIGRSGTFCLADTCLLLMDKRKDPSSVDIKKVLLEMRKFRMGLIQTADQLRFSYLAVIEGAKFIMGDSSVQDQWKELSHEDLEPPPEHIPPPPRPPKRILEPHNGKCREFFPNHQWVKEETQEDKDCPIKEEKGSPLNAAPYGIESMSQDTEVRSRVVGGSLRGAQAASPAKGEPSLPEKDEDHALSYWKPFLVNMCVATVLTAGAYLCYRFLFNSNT
endpointLabel: IC50 (µM)
Respond with the bare value in µM.

Query: IC50; subject: COc1cc(O)ccc1-c1cc2cc(CC=C(C)C)c(O)cc2o1
15.7
